Source listed as PubChem BioAssay (NCI).

Tested on: CCRF-CEM leukemia
assay-procedure: NCI tumour cell line growth inhibition, 48 h
readout-kind: TGI

Q: Supply measured TGI of `C=CCNS(=O)(=O)c1ncnc2nc[nH]c12` in your reply.
Result: > 100 µM

Q: Supply measured TGI of `C/C(=N\NC(=S)N(C)CCN(C)C(=S)N/N=C(\C)c1ccccn1)c1ccccn1` in your reply.
Result: 12.1 µM

Q: Supply measured TGI of `CCc1cc2c(cc1N1CCC(N3CCOCC3)CC1)C(C)(C)c1[nH]c3cc(C#N)ccc3c1C2=O` in your reply.
Result: > 100 µM

Q: Supply measured TGI of `CN(C)/C=N/NC(=O)/C(C#N)=C/N(C)C` in your reply.
Result: > 100 µM

Q: Supply measured TGI of `CC(=O)c1cccc(NC(=O)C(=O)Nn2c(N)nnc2N)c1` in your reply.
Result: > 100 µM

Q: Supply measured TGI of `O=S(=O)(Nc1cc(Cl)ccc1Cl)c1ccc(-c2cnc(C3CC3)o2)cc1` in your reply.
Result: > 100 µM

Q: Supply measured TGI of `O=C(NCc1ccncc1)C12CC3CC(C1)CC(c1ccc(Cl)cc1)(C3)C2` in your reply.
Result: 45 µM

Q: Supply measured TGI of `COc1cc2c(cc1OC)C(=O)Cc1ccc(OC)c(OC)c1CN(C)CC2` in your reply.
Result: > 100 µM

Q: Supply measured TGI of `CC1(C)CCC(C)(C)c2c1ccc(O)c2Cc1c(O)ccc2c1C(C)(C)CCC2(C)C` in your reply.
Result: 5.75 µM

Q: Supply measured TGI of `O=c1[nH]cnc2c1ncn2[C@@H]1C[C@H]1CO` in your reply.
Result: > 100 µM

Q: Supply measured TGI of CC(C)(C)OC(=O)NC1CCC(C(C)(C)C)CC1 (stereo not given) in your reply.
Result: > 100 µM

Q: Supply measured TGI of COc1c(C)cc2c(c1O)C1NC(C2)[C@H](O)N2C3COC(=O)[C@@]4(CS[C@@H](c5c(OC(C)=O)c(C)c6c(c53)OCO6)C12)NCCC1=C4NC2C=CC=CC12 (stereo not given in full) in your reply.
Result: < 0.01 µM

Q: Supply measured TGI of N#CCC(=O)N/N=C(\C(=O)Nc1ccc(Cl)c(Cl)c1)C1CN(c2ccccc2)N=C1N (stereo not given) in your reply.
Result: > 100 µM

Q: Supply measured TGI of `CN1CC[C@]2(c3cccc(O)c3)CC(=O)/C(=C/c3ccc(Cl)c(Cl)c3)[C@@H]1C2` in your reply.
Result: 2.85 µM

Q: Supply measured TGI of `CCCCC(=O)OC[n+]1ccc2c(C)c3[nH]c4ccccc4c3c(C)c2c1` in your reply.
Result: 4.08 µM

Q: Supply measured TGI of `C[C@]12CC[C@H](O)CC1=CC[C@@H]1[C@@H]2CC[C@]2(C)C(=N/O)/C(=C/c3ccc([N+](=O)[O-])cc3)C[C@@H]12` in your reply.
Result: > 100 µM

Q: Supply measured TGI of `COc1ccc(-c2cc(-c3ccc(O)cc3)nc3n[nH]c(N)c23)cc1` in your reply.
Result: 81.8 µM

Q: Supply measured TGI of O=C1OCc2cc3cc4c(cc3c(-c3ccc5c(c3)OCO5)c21)OCO4 (tested in a mixture with another compound) in your reply.
Result: > 100 µM

Q: Supply measured TGI of CC(C)(C)OC(=O)C1CC[C@@H](CC(=O)Oc2ccc([N+](=O)[O-])cc2)N1 (stereo not given in full) in your reply.
Result: > 100 µM

Q: Supply measured TGI of `COCn1c(C)c(C)c2c(=O)oc(N(C)C)nc21` in your reply.
Result: > 100 µM

Q: Supply measured TGI of `O=C(Nc1nc2ccc(F)cc2s1)c1cccnc1Nc1ccc(Cl)cc1` in your reply.
Result: > 100 µM

Q: Supply measured TGI of `CCCC(=O)O.CCCC(=O)O.CCCC(=O)O.CCCC(=O)O.[Rh].[Rh]` in your reply.
Result: 1.08 µM

Q: Supply measured TGI of `C[C@H](CCCNCCCNCCCN)[C@H]1CC[C@H]2[C@@H]3[C@H](OCCCN)C[C@H]4C[C@H](OCCCN)CC[C@]4(C)[C@H]3C[C@H](OCCCN)[C@]12C` in your reply.
Result: 31.1 µM

Q: Supply measured TGI of `Clc1cc2n[se]nc2cc1Cl` in your reply.
Result: > 100 µM

Q: Supply measured TGI of `Clc1ccc(-c2ccc(-c3nn4c(CNc5ccccc5)nnc4s3)o2)c(Cl)c1` in your reply.
Result: > 100 µM

Q: Supply measured TGI of `CCOP(=O)(OCC)[C@H]1OC(C)(C)O[C@@H]1CO` in your reply.
Result: > 100 µM

Q: Supply measured TGI of CC(=O)OCC(OC(C)=O)C(OC(C)=O)C(OC(C)=O)C(C=NN(C(C)=O)S(=O)(=O)c1ccc(/C=C2\NC(=O)NC2=O)cc1)OC(C)=O (stereo not given) in your reply.
Result: > 100 µM

Q: Supply measured TGI of `COc1cc(-c2nn(-c3cccc(NC(=O)c4ccc(N5CCOCC5)c(C(F)(F)F)c4)c3)cc2-c2ccncc2)ccc1Cl` in your reply.
Result: > 100 µM

Q: Supply measured TGI of `CSCCOC(=O)C(=[N+]=[N-])c1ccc([N+](=O)[O-])cc1` in your reply.
Result: > 100 µM

Q: Supply measured TGI of `N#CC1=C(N)NC(=S)NC12Nc1ccccc1N2` in your reply.
Result: > 100 µM

----------
Test system: IGROV1 ovarian
assay-procedure: NCI tumour cell line growth inhibition, 48 h
Think of 30 µM as a floor: if TGI stands on it or above, it is true; beneath it, false.

Q: For this compound, is measured TGI 30 µM or higher? `CC/C(=C(/c1ccc(O)cc1)c1ccc(OCCN2CCCCC2)cc1)c1ccc(OC)cc1`
Result: false

Q: For this compound, is measured TGI 30 µM or higher? `C=C(CN1CCN(c2cccc(C(F)(F)F)n2)CC1)c1ccc(C(=S)Nc2ccccc2N)cc1`
Result: true

Q: For this compound, is measured TGI 30 µM or higher? `CNC(=O)CN(C)C(=O)CCC(=O)N(C)C`
Result: true

Q: For this compound, is measured TGI 30 µM or higher? `COc1cccc(Cc2cc(=O)c3ccc(C)nc3[nH]2)c1`
Result: true

Q: For this compound, is measured TGI 30 µM or higher? `COc1ccc2nc3ccccc3c(NCCCN(C)CCCl)c2c1`
Result: false

Q: For this compound, is measured TGI 30 µM or higher? `[O-][n+]1onc2c1/C(=N/O)CCC2`
Result: true

Q: For this compound, is measured TGI 30 µM or higher? `O=c1c2ccccc2c2ccccc2c(=O)n1Cc1ccc2c(c1)OCO2`
Result: true

Q: For this compound, is measured TGI 30 µM or higher? `O=c1oc2ccc(-n3c(=O)c4ccccc4c4ccccc4c3=O)cc2c2ccccc12`
Result: true

Q: For this compound, is measured TGI 30 µM or higher? COc1ccc(OC(C(=O)O)c2ccccc2)c2c1CCCC2=O (stereo not given)
Result: true

Q: For this compound, is measured TGI 30 µM or higher? `CC(C)(C)c1ccc(/C=N/NC(=O)CSCC(=O)N/N=C/c2ccc(C(C)(C)C)cc2)cc1`
Result: false

Q: For this compound, is measured TGI 30 µM or higher? CCc1ccc2c(c1)N(CCO)C1=C(C(=O)OC1)C2c1cccc(Cl)c1 (stereo not given)
Result: true

Q: For this compound, is measured TGI 30 µM or higher? `COc1cc(/C=C/C(=O)CC(=O)/C=C/c2ccc(O)c(OC)c2)ccc1O`
Result: false

Q: For this compound, is measured TGI 30 µM or higher? CC(O)C1(CNc2cc(Cl)nc(N)n2)CC(CCc2ccccc2)C1 (stereo not given)
Result: false

Q: For this compound, is measured TGI 30 µM or higher? NCCN1C(=O)C2C3c4ccccc4C(c4ccccc43)C2C1=O (stereo not given)
Result: true

Q: For this compound, is measured TGI 30 µM or higher? `COc1ccc(C=C(c2ccc(OCc3ccccc3)cc2)c2ccc(OCc3ccccc3)cc2)cc1`
Result: true

Q: For this compound, is measured TGI 30 µM or higher? `O=S(O)CCCSSc1ccccc1`
Result: true

Q: For this compound, is measured TGI 30 µM or higher? `O=c1c2cc([N+](=O)[O-])ccc2nc2n1CCCCC2`
Result: true

Q: For this compound, is measured TGI 30 µM or higher? O=c1[nH]c(=O)n(C2CC(O)C(CO)O2)cc1OCC1CCCCC1 (stereo not given)
Result: true

Q: For this compound, is measured TGI 30 µM or higher? `CCCC(=O)O.CCCC(=O)O.CCCC(=O)O.CCCC(=O)O.[Rh].[Rh]`
Result: false

Q: For this compound, is measured TGI 30 µM or higher? `O=C(NCC(O)CNC(=O)C(F)(F)F)C(F)(F)F`
Result: true

Q: For this compound, is measured TGI 30 µM or higher? `Cc1ccc(NC2=N/C(=C/c3ccccc3)C(Cl)=N2)cc1`
Result: true

Q: For this compound, is measured TGI 30 µM or higher? NCCC(=O)N[C@@H](Cc1cc(O)c(O)c(SCC(NC(=O)CC[C@H](N)C(=O)O)C(=O)NCC(=O)O)c1)C(=O)O (stereo not given in full)
Result: true

Q: For this compound, is measured TGI 30 µM or higher? `O=S(=O)(Nc1cc(Cl)ccc1Cl)c1ccc(-c2cnc(C3CC3)o2)cc1`
Result: true

Q: For this compound, is measured TGI 30 µM or higher? COc1ccc2c(c1OC)OCC(CN(C)C)C2=O (stereo not given)
Result: true
